# Tested on: ACHN renal
# Assay info: NCI tumour cell line growth inhibition, 48 h
Recorded endpoint: TGI (µM)
Use µM as the unit, but write only the number.

As a guide, the following entries are already answered.
Molecule: CCOC(=O)c1c2c(n(Cc3ccccc3)c1C)C(=O)C(=O)c1ccccc1-2
Units symbol: µM
TGI: 1.92

Molecule: O=C(Nc1ccc([N+](=O)[O-])cc1[N+](=O)[O-])C(=O)C(C(=O)c1ccc2ccccc2c1)C1OC(=O)c2ccccc21 (stereo unspecified)
Units symbol: µM
TGI: 73.2

Molecule: Cn1c2ccccc2c2ncc3[nH]c4ccccc4c3c21
Units symbol: µM
TGI: 54.9

Fill in: ACHN renal TGI for COC12C(COC(N)=O)C3=C(C(=O)C(C)=C(N)C3=O)N1CC1C2N1C (stereo unspecified) = 25.3

Fill in: ACHN renal TGI for Cc1ccc(Cl)c2c(=O)c3ccc(N)cc3sc12 = 57.5

Fill in: ACHN renal TGI for C(=C\c1ccc(-c2cn3cc(/C=C/C=N/NC4=NCCN4)ccc3n2)cc1)/C=N/NC1=NCCN1 = 3.01

Fill in: ACHN renal TGI for CCN(Cc1ccc(F)cc1)c1ccc(CO)c(Br)c1 = 42

Fill in: ACHN renal TGI for Cc1nc2ccc(F)cc2c2c1CCN2c1ccc(Cl)cc1 = 96.2

Fill in: ACHN renal TGI for CCCCC/C=C1\CCC(CN(C)C)C1=O (stereo unspecified) = 27.3

Source: PubChem BioAssay (NCI)
